# Assayed target: T1, wild type human PD-L1-Fc protein (SEQ ID NO: 107) (human)
# T1 construct: Extracellular human PD-L1 (amino acid 19-238) with Fc fragment of human IgG1, expressed in 293T cells and used as culture supernatant; also called WT PD-L1; wild-type PD-L1
# T1 sequence (chain, as listed by the source limits assumed): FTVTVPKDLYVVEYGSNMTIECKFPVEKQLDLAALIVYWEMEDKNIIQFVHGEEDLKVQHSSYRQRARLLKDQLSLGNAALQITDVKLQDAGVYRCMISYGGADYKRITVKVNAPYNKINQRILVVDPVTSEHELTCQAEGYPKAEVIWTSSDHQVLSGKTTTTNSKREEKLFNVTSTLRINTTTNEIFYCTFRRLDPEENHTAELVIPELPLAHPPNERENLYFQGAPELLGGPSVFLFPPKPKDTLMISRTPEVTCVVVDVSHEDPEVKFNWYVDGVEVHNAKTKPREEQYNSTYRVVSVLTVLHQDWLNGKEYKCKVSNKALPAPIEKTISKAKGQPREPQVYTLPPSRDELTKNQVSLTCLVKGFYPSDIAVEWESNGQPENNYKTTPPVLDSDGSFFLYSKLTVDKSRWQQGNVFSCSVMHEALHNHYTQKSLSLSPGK
# Assay: ELISA on captured PD-L1-Fc, as in Example 18A; further: test concentration or dose not given here
Quantity name: Mean OD450 (OD450)
Give bare numbers, in OD450.

# lookup: Mean OD450 of 26F5 (antibody, V domains shown, Mouse monoclonal from hybridoma; also called mouse monoclonal antibody 26F5) VH: QVQLQQPGAELVKPGASVKLSCKASGYTFPSYWMHWMKQRPGQGLEWIGMIQPSTSGTIYNERFKNQVTLTVDKSSSTAYMQLSSQTSEDSAVYYCARGTGTVDYFDYWGQGTTLTVSS VL: DIVLTQSPASLAVSLGQRATISCRASESVDSYGNSFIHWYQQKPGQPPKLLIHRASNLESGIPATFSGSGSRTDFTLTINPVEADDVATYYCQQSKEDPYTFGGGTKLEIK
1.53
